viability, T/C values by entry
# System: 699152-130-R-J1-PDC complex spheroid growth
# Method notes: Anticancer human tumor 699152-130-R-J1-PDC patient-derived pancreatic carcinoma cell line growth inhibition [AhR]
# Applied conditions: second compound 0.316 µM; first compound 0.1 µM; hits give low values
Give the number; % is assumed, so skip it.

# annotated cases, reported viability, T/C shown
# Molecule, Recorded result
measured = [
    ("Nc1ccccc1NC(=O)c1ccc(CNC(=O)OCc2cccnc2)cc1 + Cc1cncc(-c2nc(NCCc3c[nH]c4ccccc34)c3ncn(C(C)C)c3n2)c1", 97.2),
    ("CC1COCCN1c1cc(C2(S(C)(=N)=O)CC2)nc(-c2ccnc3[nH]ccc23)n1 (stereo unspecified) + Cc1ccccc1N=Nc1ccc(NC(=O)c2ccnn2C)c(C)c1", 98),
    ("CC[C@@]1(O)C(=O)OCc2c1cc1n(c2=O)Cc2cc3c(CN(C)C)c(O)ccc3nc2-1 + CC(CO)NC(=O)c1cc(-c2ccc(Cl)cc2)nn(-c2cnn(C)c2)c1=O", 60.3),
    ("Nc1ccccc1NC(=O)c1ccc(CNC(=O)OCc2cccnc2)cc1 + CC(CO)NC(=O)c1cc(-c2ccc(Cl)cc2)nn(-c2cnn(C)c2)c1=O", 110),
    ("CC1COCCN1c1cc(-c2ccnn2C)c2ccnc(-c3ccn[nH]3)c2n1 (stereo unspecified) + Cc1ccccc1N=Nc1ccc(NC(=O)c2ccnn2C)c(C)c1", 82.7),
]

Now take the following molecule into account.
Input: What does the data say about its viability, T/C? Entry: CC1COCCN1c1cc(-c2ccnn2C)c2ccnc(-c3ccn[nH]3)c2n1 (stereo unspecified) + Cc1cncc(-c2nc(NCCc3c[nH]c4ccccc34)c3ncn(C(C)C)c3n2)c1
Output: 88.3

###

# Tested on: 699152-130-R-J1-PDC complex spheroid growth
# Method notes: Anticancer human tumor 699152-130-R-J1-PDC cell line growth inhibition [AhR];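 further: compound exposure lasted 7 days after spheroids had grown for 3 days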
# Applied conditions: second compound 0.1 µM; first compound 0.0316 µM; hits give low values
Items are presented alongside their recorded viability, T/C.
Just the number please, in %, no unit attached.

# example entries with known answers
# Compound, viability, T/C / %
records = [
    ("CC1(C)CCC(CN2CCN(c3ccc(C(=O)NS(=O)(=O)c4ccc(NCC5CCOCC5)c([N+](=O)[O-])c4)c(Oc4cnc5[nH]ccc5c4)c3)CC2)=C(c2ccc(Cl)cc2)C1 + CC(CO)NC(=O)c1cc(-c2ccc(Cl)cc2)nn(-c2cnn(C)c2)c1=O", 102),
    ("Nc1ccn(C2OC(CO)C(O)C2(F)F)c(=O)n1 (stereo not given) + CC(CO)NC(=O)c1cc(-c2ccc(Cl)cc2)nn(-c2cnn(C)c2)c1=O", 67.1),
    ("CC(C)c1c(-c2ccccc2)nc2c(C#N)c[nH]n2c1=O + CC(CO)NC(=O)c1cc(-c2ccc(Cl)cc2)nn(-c2cnn(C)c2)c1=O", 97),
    ("CC1COCCN1c1cc(C2(S(C)(=N)=O)CC2)nc(-c2ccnc3[nH]ccc23)n1 (stereo not given) + Cc1ccccc1N=Nc1ccc(NC(=O)c2ccnn2C)c(C)c1", 109),
    ("CC[C@@]1(O)C(=O)OCc2c1cc1n(c2=O)Cc2cc3c(CN(C)C)c(O)ccc3nc2-1 + CC(CO)NC(=O)c1cc(-c2ccc(Cl)cc2)nn(-c2cnn(C)c2)c1=O", 86.7),
]

Input: # viability, T/C lookup, item Nc1ccn(C2OC(CO)C(O)C2(F)F)c(=O)n1 (stereo not given) + Cc1cncc(-c2nc(NCCc3c[nH]c4ccccc34)c3ncn(C(C)C)c3n2)c1
Output: 76.3

Input: Also, Nc1ncn(C2CC(O)C(CO)O2)c(=O)n1 (stereo not given) + Cc1ccccc1N=Nc1ccc(NC(=O)c2ccnn2C)c(C)c1 please.
Output: 93.7

Input: Same for O=C(c1cc(Cc2n[nH]c(=O)c3ccccc23)ccc1F)N1CCN(C(=O)C2CC2)CC1 + Cc1ccccc1N=Nc1ccc(NC(=O)c2ccnn2C)c(C)c1
Output: 90.3

Input: # repeat for Cn1ncnc1C1c2n[nH]c(=O)c3cc(F)cc(c23)NC1c1ccc(F)cc1 (stereo not given) + CC(CO)NC(=O)c1cc(-c2ccc(Cl)cc2)nn(-c2cnn(C)c2)c1=O
Output: 102

Input: Try CC1COCCN1c1cc(-c2ccnn2C)c2ccnc(-c3ccn[nH]3)c2n1 (stereo not given) + Cc1cncc(-c2nc(NCCc3c[nH]c4ccccc34)c3ncn(C(C)C)c3n2)c1 next.
Output: 107
